// data source = patent US20200239549A1

- MEASUREMENT_TARGET: envelope glycoprotein B (gB) of HSV-2 strain MS (HSV-2 strain MS)
- PROCEDURE_SUMMARY: cell-based or functional assay
PROPERTY_NAME: 50% plaque number-reducing activity (nM)
Numbers only, in nM.

BINDER: antibody D48 human-murine chimeric IgG2a (antibody, V domains shown, not shown: a dimerising Fc or GST) VH: EVQLVETGGGVVRPGRSLRLSCTTSGFSFSGSAMHWVRQAPGKGLEWVAVISHDGNIIQYHDSVKGRFTISRDNSKNVLLLQMNSLRVDDTAMYYCARDVWLLPATISYAFDFWGQGTMVTVSS VL: VIWMTQSPPSLSASIGDTVTITCRASQGISNSIAWYQRRPGKAPELLVYAAYRLQSGVPSRLSGSGSGAEYTLTIKNMQPEDFATYYCQQYYDNPLTFGGGTKVEIK
50% plaque number-reducing activity, nM: 1.6

BINDER: antibody D48 human-guinea pig chimeric IgG2κ (antibody, V domains shown) VH: EVQLVETGGGVVRPGRSLRLSCTTSGFSFSGSAMHWVRQAPGKGLEWVAVISHDGNIIQYHDSVKGRFTISRDNSKNVLLLQMNSLRVDDTAMYYCARDVWLLPATISYAFDFWGQGTMVTVSS VL: VIWMTQSPPSLSASIGDTVTITCRASQGISNSIAWYQRRPGKAPELLVYAAYRLQSGVPSRLSGSGSGAEYTLTIKNMQPEDFATYYCQQYYDNPLTFGGGTKVEIK
50% plaque number-reducing activity, nM: 7.5

BINDER: antibody D48 Fab (Fab, V domains shown, not shown: small tags and cut ends; a dimerising Fc or GST) VH: EVQLVETGGGVVRPGRSLRLSCTTSGFSFSGSAMHWVRQAPGKGLEWVAVISHDGNIIQYHDSVKGRFTISRDNSKNVLLLQMNSLRVDDTAMYYCARDVWLLPATISYAFDFWGQGTMVTVSS VL: VIWMTQSPPSLSASIGDTVTITCRASQGISNSIAWYQRRPGKAPELLVYAAYRLQSGVPSRLSGSGSGAEYTLTIKNMQPEDFATYYCQQYYDNPLTFGGGTKVEIK
50% plaque number-reducing activity, nM: 4.4

Consider the record given below.
Bench note: what 50% plaque number-reducing activity did antibody D48 scFv-hFc (Fc fusion, not shown: a dimerising Fc or GST) scFv: EVQLVETGGGVVRPGRSLRLSCTTSGFSFSGSAMHWVRQAPGKGLEWVAVISHDGNIIQYHDSVKGRFTISRDNSKNVLLLQMNSLRVDDTAMYYCARDVWLLPATISYAFDFWGQGTMVTVSSASTGGGGSGGGGSGGGGSVIWMTQSPPSLSASIGDTVTITCRASQGISNSIAWYQRRPGKAPELLVYAAYRLQSGVPSRLSGSGSGAEYTLTIKNMQPEDFATYYCQQYYDNPLTFGGGTKVEIK show?
0.12
